STUDY TARGET: CYP2D6 (Homo sapiens)
Sequence (P10635 whole entry): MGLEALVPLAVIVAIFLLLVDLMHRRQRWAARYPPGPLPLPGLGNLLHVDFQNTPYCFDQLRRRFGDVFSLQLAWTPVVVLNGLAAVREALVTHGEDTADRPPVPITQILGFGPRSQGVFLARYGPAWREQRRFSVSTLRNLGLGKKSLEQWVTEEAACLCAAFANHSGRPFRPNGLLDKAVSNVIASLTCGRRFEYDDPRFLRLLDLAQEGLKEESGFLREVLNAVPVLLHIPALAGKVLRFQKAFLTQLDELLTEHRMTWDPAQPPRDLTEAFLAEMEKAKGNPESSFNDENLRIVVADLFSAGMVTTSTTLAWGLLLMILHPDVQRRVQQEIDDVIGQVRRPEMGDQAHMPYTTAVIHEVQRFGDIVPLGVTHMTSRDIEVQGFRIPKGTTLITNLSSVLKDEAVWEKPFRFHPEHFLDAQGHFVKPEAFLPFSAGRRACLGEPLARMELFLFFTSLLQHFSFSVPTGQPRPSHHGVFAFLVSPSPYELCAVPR
EXPERIMENTAL PROTOCOL: Inhibition of CYP2D6 in human liver microsomes assessed as enzyme-mediated metabolite formation at 30 uM using dextromethorphan as substrate incubated for 5 mins followed by NADPH addition measured after 30 mins by LC-MS/MS analysis relative to control
Format: ADME
Set-up: scale not given: the % may be the effect or the level left
CONDITION DESCRIPTION: probe dextromethorphan, read-out: Activity
RECORDED METRIC: activity at 0.5 h, 30 µM (%)
One number for each entry, in %.

// returns reported activity at 0.5 h, 30 µM for input `CCCCCCCC(=O)CCc1ccc(O)c(OC)c1` 53.8

Values compiled from ChEMBL document CHEMBL4007467.
